- Test system: OVCAR-3 ovarian
- method description: NCI tumour cell line growth inhibition, 48 h
quantity: TGI (µM)

>  <compound>
COC(=O)c1cc(-c2ccc(S(C)(=O)=O)cc2)[nH]c1N/N=C/c1c(Cl)cccc1Cl

>  <quantity>
TGI

>  <units text>
µM

>  <reported relation>
=

>  <number>
0.704

$$$$
>  <compound>
CC(=O)c1c(C)c2cnc(Nc3ccc(N4CCNCC4)cn3)nc2n(C2CCCC2)c1=O

>  <quantity>
TGI

>  <units text>
µM

>  <reported relation>
=

>  <number>
30.4

$$$$
>  <compound>
CC1=C[C@@H]2c3c(c(O)c(O)c4oc5cc(O)cc(O)c5c(=O)c34)[C@@H](c3cc(O)c(O)c4oc5cc(O)cc(O)c5c(=O)c34)[C@@H]2C(C)(C)C1

>  <quantity>
TGI

>  <units text>
µM

>  <reported relation>
=

>  <number>
13.4

$$$$
>  <compound>
C[C@]12CCC(=O)C[C@@H]1CC[C@@H]1[C@@H]2CC[C@]2(C)[C@@H](OC(=O)N(CCCl)N=O)CC[C@@H]12

>  <quantity>
TGI

>  <units text>
µM

>  <reported relation>
=

>  <number>
15.9

$$$$
>  <compound>
CCN(CC)CCC1CCCCN1CC(=O)N1c2cc(Cl)ccc2NC(=O)CC1C (stereo not given)

>  <quantity>
TGI

>  <units text>
µM

>  <reported relation>
>

>  <number>
100

$$$$
>  <compound>
COc1cc(C2NC(=O)C(C#N)=C(Nc3cccc(C)c3)S2)ccc1O (stereo not given)

>  <quantity>
TGI

>  <units text>
µM

>  <reported relation>
>

>  <number>
100

$$$$
>  <compound>
CCN1C(=O)N(CC)C2C1N=C(SC)N2/N=C/C=C/c1ccccc1OC (stereo not given)

>  <quantity>
TGI

>  <units text>
µM

>  <reported relation>
>

>  <number>
54.2

$$$$
>  <compound>
N#Cc1ccc(C2SCc3nc4ccccc4n32)cc1 (stereo not given)

>  <quantity>
TGI

>  <units text>
µM

>  <reported relation>
>

>  <number>
100

$$$$
>  <compound>
O=C(O)c1nn(-c2ccccc2)nc1-c1nn(-c2ccccc2)nc1C(=O)O

>  <quantity>
TGI

>  <units text>
µM

>  <reported relation>
>

>  <number>
100

$$$$
>  <compound>
CCN(C(=O)N[C@H](C(=O)N[C@@H](CSC)C(=O)N[C@@H](C)C(=O)OC)C(C)C)c1ccccc1

>  <quantity>
TGI

>  <units text>
µM

>  <reported relation>
=

>  <number>
34.5

$$$$
>  <compound>
CSc1nc(SC)c2c(C)cn(COCCOC(=O)c3ccccc3)c2n1

>  <quantity>
TGI

>  <units text>
µM

>  <reported relation>
>

>  <number>
100

$$$$
>  <compound>
COC1/C(=C\C(C)=O)c2ccccc2N1C(C)=O (stereo not given)

>  <quantity>
TGI

>  <units text>
µM

>  <reported relation>
>

>  <number>
100

$$$$
>  <compound>
C(=N\NC1=NCCN1)/c1ccc2ccccc2c1

>  <quantity>
TGI

>  <units text>
µM

>  <reported relation>
=

>  <number>
32.9

$$$$
>  <compound>
O=C(NC1C/C(=N/O)c2c(Br)sc(Br)c21)C(F)(F)F (stereo not given)

>  <quantity>
TGI

>  <units text>
µM

>  <reported relation>
>

>  <number>
100

$$$$
>  <compound>
O=C1C(Cl)=C(NCCCN(CCCNC2=C(Cl)C(=O)c3ccccc3C2=O)C2=C(Cl)C(=O)c3ccccc3C2=O)C(=O)c2ccccc21

>  <quantity>
TGI

>  <units text>
µM

>  <reported relation>
=

>  <number>
5.71

$$$$
>  <compound>
COC(=O)c1cc2cc(/C=C3/SC(=S)N(N(C(C)=O)C(C)=O)C3=O)oc2n1Cc1ccccc1

>  <quantity>
TGI

>  <units text>
µM

>  <reported relation>
=

>  <number>
51

$$$$
>  <compound>
CC12CCc3ccccc3C1=NNC(=O)C2 (stereo not given)

>  <quantity>
TGI

>  <units text>
µM

>  <reported relation>
>

>  <number>
100

$$$$
>  <compound>
COC(=O)CC1=C(C)/C(=C/c2[nH]c(-c3ccc[nH]3)cc2OC)N=C1C

>  <quantity>
TGI

>  <units text>
µM

>  <reported relation>
=

>  <number>
1.36

$$$$
>  <compound>
CN1CCN(c2nc(N)c(Br)c(Cl)n2)CC1

>  <quantity>
TGI

>  <units text>
µM

>  <reported relation>
>

>  <number>
100

$$$$
>  <compound>
Cc1nn2c(c1C#N)NNc1c-2sc(=N)nnc1=O

>  <quantity>
TGI

>  <units text>
µM

>  <reported relation>
>

>  <number>
100

$$$$
>  <compound>
O=C(NC1=C(Cl)C(=O)c2ccccc2C1=O)C(=O)C(C(=O)c1ccc2ccccc2c1)C1OC(=O)c2ccccc21 (stereo not given)

>  <quantity>
TGI

>  <units text>
µM

>  <reported relation>
=

>  <number>
9.77

$$$$
>  <compound>
CCCCCCCCCCCCOC1C(COCCN2CCCCC2)OC2OC(C)(C)OC21 (stereo not given)

>  <quantity>
TGI

>  <units text>
µM

>  <reported relation>
=

>  <number>
7.25

$$$$
>  <compound>
CSc1nc2c(c(=O)n1C)C(c1ccccc1)C1=C(N2)/C(=C/c2ccccc2)CCC1 (stereo not given)

>  <quantity>
TGI

>  <units text>
µM

>  <reported relation>
>

>  <number>
100

$$$$
>  <compound>
Cc1nc2ccc(NC3OCC(O)C(O)C3O)cc2c(=O)n1-c1ccccc1 (stereo not given)

>  <quantity>
TGI

>  <units text>
µM

>  <reported relation>
>

>  <number>
100

$$$$
>  <compound>
Cn1c(I)c(C#C[Si](C)(C)C)c(=O)[nH]c1=O

>  <quantity>
TGI

>  <units text>
µM

>  <reported relation>
=

>  <number>
3.39

$$$$
>  <compound>
NC(=O)/N=C/c1c(O)c2ccccc2oc1=O

>  <quantity>
TGI

>  <units text>
µM

>  <reported relation>
>

>  <number>
100

$$$$
>  <compound>
COc1ccc(-c2cc(-c3ccc(Nc4ccnc5cc(Cl)ccc45)cc3)[nH]c(=O)c2C#N)cc1

>  <quantity>
TGI

>  <units text>
µM

>  <reported relation>
>

>  <number>
100

$$$$
>  <compound>
CSc1nc(NCc2ccccc2)c2cnn(COCCO)c2n1

>  <quantity>
TGI

>  <units text>
µM

>  <reported relation>
>

>  <number>
100

$$$$
>  <compound>
COc1cc(S(=O)(=O)Nc2ccc(-c3csc(N4C(=O)CSC4c4ccccc4O)n3)cc2)ccc1Cl (stereo not given)

>  <quantity>
TGI

>  <units text>
µM

>  <reported relation>
>

>  <number>
100

$$$$
>  <compound>
COC(=O)c1c2c(cc3c1CC1(Cc4ccccc4C1)C3)CCC2

>  <quantity>
TGI

>  <units text>
µM

>  <reported relation>
=

>  <number>
47.6

$$$$
>  <compound>
COc1ccc(/C=C/c2ccnc3ccccc23)cc1OC

>  <quantity>
TGI

>  <units text>
µM

>  <reported relation>
=

>  <number>
26.6

$$$$
>  <compound>
COC(=O)C(CCC1(C)OCCO1)=[N+]=[N-]

>  <quantity>
TGI

>  <units text>
µM

>  <reported relation>
>

>  <number>
100

$$$$
>  <compound>
N#CC1=C(N)N(/N=C/c2ccco2)C(c2ccco2)C1(C#N)C#N (stereo not given)

>  <quantity>
TGI

>  <units text>
µM

>  <reported relation>
=

>  <number>
39

$$$$
>  <compound>
N#CC(/C(CCCC(=O)Nc1cccc([N+](=O)[O-])c1)=N\NC(=O)c1c(O)ccc2ccccc12)c1nc2ccccc2s1 (stereo not given)

>  <quantity>
TGI

>  <units text>
µM

>  <reported relation>
>

>  <number>
100

$$$$
>  <compound>
NC1=Nc2ccccc2Sc2cccc(F)c21

>  <quantity>
TGI

>  <units text>
µM

>  <reported relation>
>

>  <number>
100

$$$$

Data provenance is PubChem BioAssay (NCI).
